SYSTEM NAME: RSV F on RSV subtype A virus (RSV-A2) (Respiratory Syncytial Virus, subtype A, …, UniProt P03420 26-574)
ASSAY NOTES: cell-based or functional assay
Could you please report measured Neutralization IC50 (RSV subtype A) for the items listed next?
Answers are plain numbers, in µg/mL.

Study these solved cases before continuing.
| BINDER | Neutralization IC50 (RSV subtype A), µg/mL |
| --- | --- |
| ADI-41828 (antibody, V domains shown) VH: EVQLVESGGGLVQPGGSLRLSCADSDFTFSTYSMNWVRQAPGKGLEWISYITGRSSAIYYADSVKGRFTISRDNAKNSLFLQMNSLRAEDTAVYYCTTFMAGYSFGHGDAFDIWGQGTTVTVSS VL: SYELTQPPSVSVAPGQTARITCGGNNIGSKSVHWYQQKPGQAPVLVVYDDSDRPSGIPERFSGSNSGNTATLTISRVEAGDEADYYCQVWNSNSDHPHWVFGGGTQLTVL | 5.53 |
| ADI-41835 (antibody, V domains shown) VH: EVQLLESGGGLVQPGGSLRLSCAASGFTFSSYAMNWVRQAPGKGLEWVSIISDSGGSTYYADSVKGRFTISRDNSKNTLYLQMNSLRAEDTAVYYCAKATPLKWELLIGSTPGYYFDYWGQGTTVTVSS VL: SYELTQLPSVSVSPGQTASITCSGDKLGDKYACWYQQKPGQSPVVIMYQDNKRPSGIPERFSGSNSGNTATLTISGTQAMDEADYYCQAWDSSTGVFGGGTKVTVL | 0.45 |

(Q) Please look up its Neutralization IC50 (RSV subtype A): ADI-41829 (antibody, V domains shown) VH: EVQLVESGGGLVKPGGSLRLSCAASGFTSSGYNMNWVRQAPGKGLEWVSSISGSSSYIHYADSVKGRFTISRDNAKNSLYLQMNSLRAEDTAVYYCATVGALPGHFDNWGQGTLVTVSS VL: QAVVTQEPSVSGAPGQRVTISCTGSSSNIGAGYDVHWYQQLPGTAPKLLIYDNTNRPSGVPDRFSGSKSGTSASLAITGLQAEDEADYYCQSYDSRLTYVFGTGTKVTVL
(A) 0.12

Reference source for all entries: patent US20260258115A1
